Quick reference: pIC50 of the listed items.
Molecular target: PIK3CA (human)
Assay: Cell-Based Assay
Details: rat-1
pIC50: −log10 of the molar value.
observation.type: pIC50

>>> measurement("Nc1cc(C(F)(F)F)c(-c2cc(N3CCCCC3=O)nc(N3CCOCC3)n2)cn1")
6.43
>>> measurement("Nc1cc(C(F)(F)F)c(-c2cc(N3CCC(=O)CC3)nc(N3CCOCC3)n2)cn1")
5.76
>>> measurement("Nc1cc(C(F)(F)F)c(-c2cc(N3CCN(c4ccccc4)C3=O)nc(N3CCOCC3)n2)cn1")
6.22

----------
Target: PIK3CG (human) (UniProt P48736)
Sequence (P48736 whole entry, looked up): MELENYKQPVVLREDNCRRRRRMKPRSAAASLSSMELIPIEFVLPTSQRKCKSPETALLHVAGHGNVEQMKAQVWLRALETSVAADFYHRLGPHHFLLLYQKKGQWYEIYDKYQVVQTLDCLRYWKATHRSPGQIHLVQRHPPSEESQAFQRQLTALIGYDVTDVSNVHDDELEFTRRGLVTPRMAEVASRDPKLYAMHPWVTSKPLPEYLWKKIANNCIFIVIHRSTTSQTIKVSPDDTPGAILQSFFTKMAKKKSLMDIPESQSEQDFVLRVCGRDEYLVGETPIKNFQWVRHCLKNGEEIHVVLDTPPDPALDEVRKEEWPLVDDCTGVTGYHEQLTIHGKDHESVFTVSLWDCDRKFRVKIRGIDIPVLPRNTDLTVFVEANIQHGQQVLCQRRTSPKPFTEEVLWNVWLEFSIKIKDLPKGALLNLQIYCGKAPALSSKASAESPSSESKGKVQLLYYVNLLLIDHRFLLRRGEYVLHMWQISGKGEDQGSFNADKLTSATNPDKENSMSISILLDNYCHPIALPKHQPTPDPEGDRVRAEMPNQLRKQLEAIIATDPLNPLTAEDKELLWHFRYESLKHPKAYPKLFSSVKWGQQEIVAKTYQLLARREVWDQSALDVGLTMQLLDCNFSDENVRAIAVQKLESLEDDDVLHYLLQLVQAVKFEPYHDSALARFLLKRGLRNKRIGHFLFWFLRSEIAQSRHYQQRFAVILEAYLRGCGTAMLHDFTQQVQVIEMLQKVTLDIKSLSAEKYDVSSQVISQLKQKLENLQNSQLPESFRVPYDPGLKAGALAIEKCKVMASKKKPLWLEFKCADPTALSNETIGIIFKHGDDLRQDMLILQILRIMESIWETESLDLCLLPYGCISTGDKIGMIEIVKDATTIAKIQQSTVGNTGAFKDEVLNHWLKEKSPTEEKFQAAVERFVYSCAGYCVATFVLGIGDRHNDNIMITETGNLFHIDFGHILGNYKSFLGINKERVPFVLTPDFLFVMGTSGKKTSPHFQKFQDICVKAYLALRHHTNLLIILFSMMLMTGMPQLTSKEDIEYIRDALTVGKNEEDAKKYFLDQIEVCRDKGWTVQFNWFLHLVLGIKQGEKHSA
In this section, each of the compounds is paired with its reported IC50.
observation.type: IC50 (µM)

>>> measurement("Nc1cc(C(F)(F)F)c(-c2cc(N3CCCCC3=O)nc(N3CCOCC3)n2)cn1")
3.36
>>> measurement("Nc1cc(C(F)(F)F)c(-c2cc(N3CCC(=O)CC3)nc(N3CCOCC3)n2)cn1")
4.46
>>> measurement("Nc1ncc(-c2cc(N3CCOC(c4ccccc4)C3)nc(N3CCOCC3)n2)c(C(F)(F)F)n1 (stereo not drawn)")
0.17
